Would you kindly list Agonistic Activity (%) at 10 μM for each of these compounds?
Target: CCK-B receptors (CHO-CCK) (Homo sapiens, UniProt P32239)
Construct: expressed in transfected cells; host or cells: CHO (CHO-CCK model cells)
Sequence (P32239 1-447): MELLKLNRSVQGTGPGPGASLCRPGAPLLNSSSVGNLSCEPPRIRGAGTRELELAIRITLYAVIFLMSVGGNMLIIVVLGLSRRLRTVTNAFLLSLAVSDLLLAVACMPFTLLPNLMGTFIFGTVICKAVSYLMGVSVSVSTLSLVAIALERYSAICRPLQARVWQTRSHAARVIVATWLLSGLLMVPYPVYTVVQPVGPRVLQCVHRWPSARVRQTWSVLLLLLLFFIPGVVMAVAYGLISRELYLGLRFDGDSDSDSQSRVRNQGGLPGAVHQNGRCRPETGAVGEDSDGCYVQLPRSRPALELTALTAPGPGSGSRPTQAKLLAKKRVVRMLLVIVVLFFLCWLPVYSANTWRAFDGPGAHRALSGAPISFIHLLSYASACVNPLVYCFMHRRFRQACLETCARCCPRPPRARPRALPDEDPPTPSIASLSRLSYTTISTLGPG
Experiment: Calcium flux (Fluo-8) agonist test on CHO-CCK model cells
Format: cell-based
Conditions: compound at 10 μM; percentage of signal of 20 nM CCK8 alone
Numeric answer plus unit only.

Check out these entries, answers already filled in.
{"columns": ["compound", "assay_value"],
 "data": [
  ["COC(=O)C[C@H](NC(=O)[C@H](CC[S+](C)[O-])NC(=O)[C@H](N)Cc1c[nH]c2ccccc12)C(=O)N[C@@H](Cc1ccccc1)C(N)=O (some centres unmarked)", "−9.73%"],
  ["COC(=O)C[C@H](NC(=O)[C@H](CCSC)NC(=O)[C@H](N)Cc1c[nH]c2ccccc12)C(=O)N[C@@H](Cc1ccc(F)cc1)C(N)=O", "28.73%"],
  ["COC(=O)C[C@H](NC(=O)[C@H](CCSC)NC(=O)[C@H](N)Cc1c[nH]c2ccccc12)C(=O)N[C@@H](Cc1ccc(C)cc1)C(N)=O", "12.27%"],
  ["Cc1ccc(C[C@H](NC(=O)[C@H](CC(=O)OCCNc2cccc3c(O)cccc23)NC(=O)[C@H](CCS(C)(=O)=O)NC(=O)[C@H](N)Cc2c[nH]c3ccccc23)C(N)=O)cc1 [HT-166, D-Trp-Met(O2)-Asp(EDANS)-Phe(4-Me)-NH2]", "3.59%"]
]}

Below: the item to evaluate.
Lookup result for COC(=O)C[C@H](NC(=O)[C@H](CC[S+](C)[O-])NC(=O)[C@H](N)Cc1c[nH]c2ccccc12)C(=O)N[C@@H](Cc1ccc(C#N)cc1)C(N)=O (some centres unmarked) ; measured Agonistic Activity (%) at 10 μM: 9.81%

###

test: Pharmacokinetics in KM mice after intravenous administration; settings: male, mouse, plasma, 1 mg/kg
Where a SMILES comes first, the peptide text is derived from it. [ ]: non-standard residue; d: D form. Phe(3-Br) = N[C@@H](Cc1cccc(Br)c1)C(=O)O; Nle = CCCC[C@H](N)C(=O)O
measured_quantity: AUC(0-inf) (ng·h/mL)
Give bare numbers, in ng·h/mL.

{"columns": ["compound", "measurement_unit", "AUC(0-inf)"],
 "data": [
  ["CCCC[C@H](NC(=O)[C@H](Cc1c[nH]c2ccccc12)NC(C)=O)C(=O)N[C@@H](CC(=O)O)C(=O)N[C@@H](Cc1cccc(Br)c1)C(N)=O [HT-177, Ac-Trp-Nle-Asp-Phe(3-Br)-NH2] (Ac-W[Nle]D[Phe(3-Br)]-NH2)", "ng·h/mL", 641]
]}

Below: the item to evaluate.
Lookup result for "CSCC[C@H](NC(=O)[C@@H](Cc1c[nH]c2ccccc12)NC(C)=O)C(=O)N[C@@H](CC(=O)O)C(=O)N[C@@H](Cc1cccc(Br)c1)C(N)=O" ; measured AUC(0-inf): 302

###

Would you kindly list % Act-Ave @ 1 nM for each of these compounds?
Biological target: CCK-B receptors (CHO-CCK) (Homo sapiens)
Construct: expressed in transfected cells; host or cells: CHO (CHO-CCK model cells)
Sequence (P32239 1-447): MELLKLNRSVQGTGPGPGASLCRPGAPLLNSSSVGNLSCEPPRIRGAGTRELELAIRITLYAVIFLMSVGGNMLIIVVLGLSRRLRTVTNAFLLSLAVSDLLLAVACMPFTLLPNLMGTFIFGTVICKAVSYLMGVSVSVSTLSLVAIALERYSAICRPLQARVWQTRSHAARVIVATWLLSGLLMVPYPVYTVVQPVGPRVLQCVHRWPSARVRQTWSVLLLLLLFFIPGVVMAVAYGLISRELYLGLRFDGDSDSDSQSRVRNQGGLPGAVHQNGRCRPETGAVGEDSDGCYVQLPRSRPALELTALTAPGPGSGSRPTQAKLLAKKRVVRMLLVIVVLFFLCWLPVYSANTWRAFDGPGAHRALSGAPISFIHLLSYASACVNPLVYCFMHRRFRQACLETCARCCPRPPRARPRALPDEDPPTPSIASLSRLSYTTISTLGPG
Assay: Calcium flux (Fluo-8) agonist test on CHO-CCK model cells
Assay type: cell-based
Conditions: compound at 1 nM, CHO-CCK cells
Method: • To detect changes in intracellular calcium ion concentration after the compound acts on model cells containing CCK-B receptors (CHO-CCK). • 1. The compound was formulated to a 10 mM mother liquor with DMSO, and then diluted into a series of 9 concentrations with a 3-fold gradient to form a 1000× stock solution. […] • 1. […] In the process of incubating cells, the compounds to be detected were prepared with HHBS. • 5. […]
Where a SMILES comes first, the peptide text is derived from it. [ ]: non-standard residue; d: D form. NMeW = CN[C@@H](Cc1c[nH]c2ccccc12)C(=O)O; Phe(3-Br) = N[C@@H](Cc1cccc(Br)c1)C(=O)O; Nle = CCCC[C@H](N)C(=O)O
Give bare numbers, in %.

{"columns": ["compound", "% Act-Ave @ 1 nM (%)"],
 "data": [
  ["CCCC[C@H](NC(=O)[C@H](Cc1c[nH]c2ccccc12)N(C)C(C)=O)C(=O)N[C@@H](CC(=O)O)C(=O)N[C@@H](Cc1cccc(Br)c1)C(N)=O [HT-269, Ac-(N-Me-Trp)-Nle-Asp-Phe(3-Br)-NH2] (Ac-[NMeW][Nle]D[Phe(3-Br)]-NH2)", 0.05]
]}

Below: the item to evaluate.
Lab entry: CCK-B receptors (CHO-CCK) (Homo sapiens) assay, compound CCCC[C@H](NC(C)=O)C(=O)N[C@@H](CC(=O)O)C(=O)N[C@@H](Cc1cccc(Br)c1)C(N)=O [HT-283, Ac-Nle-Asp-Phe(3-Br)-NH2] (Ac-[Nle]-Asp-[Phe(3-Br)]-NH2) , % Act-Ave @ 1 nM = −0.04

###

Would you kindly list EC50 for each of these compounds?
target: CCK-B receptors (CHO-CCK) (Homo sapiens, UniProt P32239); construct: expressed in transfected cells; host or cells: CHO (CHO-CCK model cells); test: Calcium flux (Fluo-8) antagonist test on CHO-CCK model cells in presence of CCK8; assay type: cell-based; conditions: in presence of 10 nM CCK8
Where a SMILES comes first, the peptide text is derived from it. [ ]: non-standard residue; d: D form. The star is where a group is joined. dTrp(6-OH) = N[C@H](Cc1c[nH]c2cc(O)ccc12)C(=O)O; Phe(3-Br) = N[C@@H](Cc1cccc(Br)c1)C(=O)O; dNMeW = CN[C@H](Cc1c[nH]c2ccccc12)C(=O)O; Fmoc = O=C(OCC1c2ccccc2-c2ccccc21)*; Nle = CCCC[C@H](N)C(=O)O
Answers are plain numbers, in nM.

Check out these entries, answers already filled in.
{"columns": ["compound", "measurement_target", "measurement_unit", "EC50"],
 "data": [
  ["CCCC[C@H](NC(=O)[C@@H](Cc1cn(C)c2ccccc12)NC(C)=O)C(=O)N[C@@H](CCC(=O)O)C(=O)N[C@@H](Cc1cn(C)c2ccccc12)C(N)=O [HT-245, Ac-(1-Me-Trp)-Nle-Glu-(1-Me-Trp)-NH2]", "CCK-B receptors (CHO-CCK) (Homo sapiens, UniProt P32239)", "nM", 1760],
  ["CCCC[C@H](NC(=O)[C@H](Cc1c[nH]c2ccccc12)NC(C)=O)C(=O)N[C@@H](CCC(=O)O)C(=O)N[C@@H](Cc1cccc(Br)c1)C(N)=O [HT-238, Ac-D-Trp-Nle-Glu-Phe(3-Br)-NH2]", "CCK-B receptors (CHO-CCK) (Homo sapiens, UniProt P32239)", "nM", 28200],
  ["CCCC[C@H](NC(=O)[C@@H](Cc1c(C)[nH]c2ccccc12)NC(C)=O)C(=O)N[C@@H](CC(=O)O)C(=O)N[C@@H](Cc1cccc(Br)c1)C(N)=O [HT-231, Ac-(2-Me-Trp)-Nle-Asp-Phe(3-Br)-NH2]", "CCK-B receptors (CHO-CCK) (Homo sapiens, UniProt P32239)", "nM", 1430],
  ["CCCC[C@H](NC(=O)[C@@H](Cc1c[nH]c2ccccc12)N(C)C(=O)OCC1c2ccccc2-c2ccccc21)C(=O)N[C@@H](CC(=O)O)C(=O)N[C@@H](Cc1cccc(Br)c1)C(N)=O [HT-249, Fmoc-(N-Me-D-Trp)-Nle-Asp-Phe(3-Br)-NH2] (Fmoc-[dNMeW][Nle]D[Phe(3-Br)]-NH2)", "CCK-B receptors (CHO-CCK) (Homo sapiens, UniProt P32239)", "nM", 4550],
  ["CCCC[C@H](NC(=O)[C@@H](Cc1c[nH]c2ccccc12)N(C)C(=O)OCC1c2ccccc2-c2ccccc21)C(=O)N[C@@H](CC(=O)OC)C(=O)N[C@@H](Cc1cccc(Br)c1)C(N)=O [HT-253] (Fmoc-[dNMeW][Nle]D(OMe)[Phe(3-Br)]-NH2)", "CCK-B receptors (CHO-CCK) (Homo sapiens, UniProt P32239)", "nM", 1920]
]}

Below: the item to evaluate.
Lookup result for CCCC[C@H](NC(=O)[C@@H](Cc1c[nH]c2cc(O)ccc12)NC(C)=O)C(=O)N[C@@H](CC(=O)O)C(=O)N[C@@H](Cc1cccc(Br)c1)C(N)=O [HT-227, Ac-(5-HTP)-Nle-Asp-Phe(3-Br)-NH2] (Ac-[dTrp(6-OH)][Nle]D[Phe(3-Br)]-NH2) ; measured EC50: 3400
